Tested on: Mycobacterium tuberculosis
assayRemarks: Antimycobacterial activity against multi-drug resistant Mycobacterium tuberculosis 7357/1998 after 14 days by microplate dilution method
Assay type: functional
experimentalContext: 7357/1998, 336 h
experimentalReadout: MIC (µM)
Answer in µM, number only, no unit symbol.

Quick note, MIC for CCCCCCCNc1cnc(C(=O)NCc2ccccc2)cn1 landed at 4

Note to self: MIC recorded for CCCCCCCNc1cncc(C(=O)NCc2ccccc2)n1 was 16

Per the records, this compound ( CCCCCNc1cncc(C(=O)NCc2ccccc2)n1 ) has MIC equal to 32

Kindly note the recorded MIC for NNC(=O)c1ccncc1 , which is 16

Summary for this compound, CCCCNc1nccnc1C(=O)NCc1ccccc1 : MIC is 125

Measured MIC, CCCCCCNc1cnc(C(=O)NCc2ccccc2)cn1 : 8

For CCCCNc1cnc(C(=O)NCc2ccccc2)cn1 the compound record lists MIC as 125
